Tested on: Monocotyledonous and dicotyledonous test plants
assay-text: Herbicidal action before emergence of the plants (pre-emergence action)
Format: in vivo
measurement-conditions: Sinapis; 2000 g/ha; evaluated after 3 weeks; nine-step scale
readout-type: pre-emergence action, Sinapis
Keep it simple and answer with nothing but the number.

# lookup: COCc1nc(C(F)(F)F)ccc1C(=O)C1=C([S+]([O-])c2ccccc2)CCCC1=O (centres unmarked) [Compound A8-B1103] on Monocotyledonous and dicotyledonous test plants, pre-emergence action, Sinapis = 1

The recorded pre-emergence action, Sinapis with Monocotyledonous and dicotyledonous test plants for Cc1nc(C(F)(F)F)ccc1C(=O)C1=C(O)CC(C)CC1=O (centres unmarked) [Compound A2-B133] was 2

Tested system Monocotyledonous and dicotyledonous test plants; pre-emergence action, Sinapis recorded for Cc1nc(C(F)(F)C(F)(F)C(F)(F)F)ccc1C(=O)C1=C(O)C(C)(C)CCC1=O [Compound A64-B24] was 2

Lab entry: Monocotyledonous and dicotyledonous test plants assay, molecule CC1(C)CCC(=O)C(C(=O)c2ccc(C(F)(F)F)nc2C(F)F)=C1O [Compound A18-B24] , pre-emergence action, Sinapis = 1

Per the reported Monocotyledonous and dicotyledonous test plants data, CCc1nc(C(F)(F)F)ccc1C(=O)C1=C(O)C(C)(C)CCC1=O [Compound A3-B24] has pre-emergence action, Sinapis of 2

Item: COC1CC(C)C(=O)C(C(=O)c2ccc(C(F)(F)F)nc2C)=C1O (centres unmarked) [Compound A2-B1070] | System: Monocotyledonous and dicotyledonous test plants | pre-emergence action, Sinapis: 2

Cc1nc(C(F)(F)F)ccc1C(=O)C1=C(O)C(C)C(C)CC1=O (centres unmarked) [Compound A2-B134] tested on Monocotyledonous and dicotyledonous test plants gave pre-emergence action, Sinapis: 2

Measured on Monocotyledonous and dicotyledonous test plants, CCOC(=O)C1(C)CCC(=O)C(C(=O)c2ccc(C(F)(F)F)nc2C)=C1O (centres unmarked) [Compound A2-B35] has a documented pre-emergence action, Sinapis of 2

Entry C#CCC1CC(C)(C)C(=O)C(C(=O)c2ccc(C(F)(F)F)nc2C)=C1O (centres unmarked) [Compound A2-B1082] , Monocotyledonous and dicotyledonous test plants data, pre-emergence action, Sinapis value: 2

The molecule COC(=O)C1(OC)CCC(=O)C(C(=O)c2ccc(C(F)(F)F)nc2C)=C1O (centres unmarked) [Compound A2-B1067] , tested on Monocotyledonous and dicotyledonous test plants, showed pre-emergence action, Sinapis of 2

Item: Cc1nc(C(F)(F)F)ccc1C(=O)C1=C(O)C(C)(S(C)(=O)=O)CCC1=O (centres unmarked) [Compound A2-B31] | System: Monocotyledonous and dicotyledonous test plants | pre-emergence action, Sinapis: 2

Entry COCc1nc(C(F)(F)F)ccc1C(=O)C1=C(O)C(C)(C)CCC1=O [Compound A8-B24] , Monocotyledonous and dicotyledonous test plants data, pre-emergence action, Sinapis value: 2

// assay Monocotyledonous and dicotyledonous test plants, entry Cc1nc(C(F)(F)F)ccc1C(=O)C1=C(O)CCCC1=O [Compound A2-B1] , pre-emergence action, Sinapis value = 2

Measured pre-emergence action, Sinapis (Monocotyledonous and dicotyledonous test plants), entry Cc1nc(C(F)(F)F)ccc1C(=O)C1=C(O)C(C)(C)CC(C)C1=O (centres unmarked) [Compound A2-B68] : 2

Log: Monocotyledonous and dicotyledonous test plants, molecule Cc1c(C(=O)C2=C(O)C(C)(C)C(=O)C(C)(C)C2=O)ccc(C(F)(F)F)[n+]1[O-] [Compound A1210-B354] , pre-emergence action, Sinapis = 1

Monocotyledonous and dicotyledonous test plants data for Cc1nc(C(F)(F)F)ccc1C(=O)C1=C(O)C(C)(S(C)(=O)=O)C2CC2C1=O (centres unmarked) [Compound A2-D115] ; its pre-emergence action, Sinapis: 2

So the reported pre-emergence action, Sinapis for Cc1nc(C(F)(F)F)ccc1C(=O)C1=C(O)C(C)(C)OCC1=O [Compound A2-B552] , on Monocotyledonous and dicotyledonous test plants, turned out to be 2

Cited source: patent US6673938B1
